Attribution: paper PMC4259358

Can you tell me Kd for the items I'm about to list?
# target.entity: recombinant IPOA5 (importin α5/kap α1) (UniProt P52294 1-538)
# Sequence (P52294 whole entry): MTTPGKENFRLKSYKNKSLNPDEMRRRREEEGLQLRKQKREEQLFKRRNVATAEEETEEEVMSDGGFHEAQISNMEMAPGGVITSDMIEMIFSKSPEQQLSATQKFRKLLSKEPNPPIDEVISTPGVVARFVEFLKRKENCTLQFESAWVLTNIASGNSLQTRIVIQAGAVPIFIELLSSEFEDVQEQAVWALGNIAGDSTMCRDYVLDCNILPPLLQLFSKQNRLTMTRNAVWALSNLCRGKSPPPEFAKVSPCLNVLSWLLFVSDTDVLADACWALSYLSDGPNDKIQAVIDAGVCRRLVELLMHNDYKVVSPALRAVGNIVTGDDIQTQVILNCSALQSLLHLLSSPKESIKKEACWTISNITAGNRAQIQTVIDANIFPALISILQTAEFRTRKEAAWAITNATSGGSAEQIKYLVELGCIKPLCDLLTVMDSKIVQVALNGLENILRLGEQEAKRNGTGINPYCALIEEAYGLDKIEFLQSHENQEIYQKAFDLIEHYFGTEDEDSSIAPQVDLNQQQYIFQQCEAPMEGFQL
# protocol.notes: ELISA; plates coated with synthetic peptide (10 µg/ml, carbonate buffer pH 9.6); increasing concentrations of recombinant NTF, 2 h, room temperature; anti-HIS detection; apparent Kd
# test.settings: both partners purified
Answers are plain numbers, in nM.

Please review the following examples before continuing.
Looking up PKPQRKTKRNTNRRPRQIKIWFQNRRMKWKK (source: synthetic peptide (GL Biochem, HPLC >85%)) [Core NLS 1 synthetic peptide (fused to penetratin)] , I found its Kd recorded as 161

Memo: PRGRRQPIPKDRRSTGKAWGKPRQIKIWFQNRRMKWKK (source: synthetic peptide (GL Biochem, HPLC >85%)) [Core NLS 3 synthetic peptide (fused to penetratin)] , reported Kd: 17.5

The measured Kd associated with PIIFSPMEKKVIVWGRQIKIWFQNRRMKWKK (source: synthetic peptide (GL Biochem, HPLC >85%)) [NS2 NLS synthetic peptide (fused to penetratin)] reads 79.2

Next item in the queue.
PRRGPRLGVRRQIKIWFQNRRMKWKK (source: synthetic peptide (GL Biochem, HPLC >85%)) [Core NLS 2 synthetic peptide (fused to penetratin)] yielded Kd of 24.9
